system: UniProt P80299
assay.explanation: sEH inhibition assay
Format: biochemical
outcome.measure: pIC50
Answers are plain numbers, as −log10 of the molar value.

// solved cases for pIC50 follow
[[record]]
input_smiles = "O=C(Nc1ccc(-c2nc3ccccc3s2)cc1)C1CCN(S(=O)(=O)c2c(Cl)cc(Br)cc2Cl)CC1"
outcome_measure = "pIC50"
recorded_measurement = 7.37

[[record]]
input_smiles = "O=C(Nc1ccc(-c2nc3ccccc3s2)cc1)C1CCN(S(=O)(=O)c2cccc(C(F)(F)F)c2)CC1"
outcome_measure = "pIC50"
recorded_measurement = 6.91

[[record]]
input_smiles = "O=C(Nc1ccc(-c2nc3ccccc3s2)cc1)C1CCN(S(=O)(=O)c2ccc([N+](=O)[O-])cc2)CC1"
outcome_measure = "pIC50"
recorded_measurement = 5.35

[[record]]
input_smiles = "O=C(Nc1ccc(-c2nc3ccccc3s2)cc1)C1CCN(S(=O)(=O)c2ccc(F)cc2Cl)CC1"
outcome_measure = "pIC50"
recorded_measurement = 6.94

[[record]]
input_smiles = "O=C(Nc1ccc(-c2nc3ccccc3s2)cc1)C1CCN(S(=O)(=O)c2ccc(F)cc2Br)CC1"
outcome_measure = "pIC50"
recorded_measurement = 7.93


For each of the compounds below, note its pIC50.
1. O=C(Nc1ccc(-c2nc3ccccc3s2)cc1)C1CCN(S(=O)(=O)c2ccccc2C(F)(F)F)CC1
2. N#Cc1ccccc1S(=O)(=O)N1CCC(C(=O)Nc2ccc(-c3nc4ccccc4s3)cc2)CC1

[8.24, 6.73]

For each of the compounds below, note its pIC50.
1. O=C(Nc1ccc(-c2nc3ccccc3s2)cc1)C1CCN(S(=O)(=O)c2cc(C(F)(F)F)cc(C(F)(F)F)c2)CC1
2. O=C(Nc1ccc(-c2nc3ccccc3s2)cc1)C1CCN(S(=O)(=O)c2ccc(C(F)(F)F)cc2)CC1

5.54
7.54

----------
system: human sEH (Homo sapiens, UniProt P34913)
assay.explanation: sEH inhibition assay
Type: biochemical
stated.conditions: read-out: Human sEH IC50; human recombinant sEH, CMNPC 5 μM, pH 7.4, 30 °C
outcome.measure: IC50 (nM)
Answers are plain numbers, in nM.

What does the record list as IC50 for O=C(Nc1ccc(-c2nc3ccccc3s2)cc1)C1CCN(S(=O)(=O)c2ccc(C(F)(F)F)cc2Cl)CC1 [Compound 7g] ? 432

----------
assay.explanation: Microsomal liver stability assay, rat
Assay type: in vitro ADME
stated.conditions: both, rat liver microsomes, pH 7.4
outcome.measure: microsomal CLint at 1 μM (µL/min/mg)
One number for each entry, in µL/min/mg.

What does the record list as microsomal CLint at 1 μM for O=C(Nc1ccc(-c2nc3ccccc3s2)cc1)C1CCN(S(=O)(=O)c2ccccc2C(F)(F)F)CC1 ? 94

----------
assay.explanation: Microsomal liver stability assay, rat
Type: in vitro ADME
stated.conditions: both, microsomes, pH 7.4
outcome.measure: microsomal CLint at 1 μM (µL/min/mg)
Answers are plain numbers, in µL/min/mg.

What does the record list as microsomal CLint at 1 μM for C[C@]12CC[C@H]3[C@@H](CCC4=CC(=O)CC[C@@]43C)[C@@H]1CC[C@@H]2O [Testosterone (control), testosterone, reference compound] ? 1250

----------
Exercise: state measured pIC50 for each of the compounds provided.
system: rat sEH (Rattus norvegicus)
Sequence (P80299 whole entry): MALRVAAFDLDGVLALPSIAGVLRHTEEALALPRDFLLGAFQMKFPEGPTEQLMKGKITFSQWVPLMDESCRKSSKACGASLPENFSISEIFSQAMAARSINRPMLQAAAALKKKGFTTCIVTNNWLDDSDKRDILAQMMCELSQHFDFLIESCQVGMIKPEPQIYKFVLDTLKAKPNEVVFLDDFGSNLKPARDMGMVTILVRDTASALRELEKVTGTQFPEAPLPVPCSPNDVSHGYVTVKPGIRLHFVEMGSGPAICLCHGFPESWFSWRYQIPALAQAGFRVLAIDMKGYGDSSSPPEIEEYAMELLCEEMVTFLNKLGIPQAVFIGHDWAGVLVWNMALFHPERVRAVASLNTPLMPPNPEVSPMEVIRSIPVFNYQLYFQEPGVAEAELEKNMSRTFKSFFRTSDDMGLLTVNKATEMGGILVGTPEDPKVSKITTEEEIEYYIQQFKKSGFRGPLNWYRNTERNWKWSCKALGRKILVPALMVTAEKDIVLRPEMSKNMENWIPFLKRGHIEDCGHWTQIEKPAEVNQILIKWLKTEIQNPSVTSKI
assay.explanation: sEH inhibition assay
Format: biochemical
stated.conditions: read-out: Rat sEH IC50; rat sEH, CMNPC 5 μM, pH 7.4, 30 °C
Numbers only, as −log10 of the molar value.

For each of the compounds below, note its pIC50.
1. O=C(Nc1ccc(-c2nc3ccccc3s2)cc1)C1CCN(S(=O)(=O)c2ccc(C(F)(F)F)cc2Cl)CC1
2. O=C(Nc1ccc(OC(F)(F)F)cc1)NC1CCC(Oc2ccc(C(=O)O)cc2)CC1 (centres unmarked) [t-TUCB, reference compound]

6.07
8.03

----------
assay.explanation: Microsomal liver stability assay, human
Assay type: in vitro ADME
stated.conditions: human liver microsomes, pH 7.4
outcome.measure: half-life at 1 μM
A complete answer gives the number and then names the unit.

What does the record list as half-life at 1 μM for O=C(Nc1ccc(-c2nc3ccccc3s2)cc1)C1CCN(S(=O)(=O)c2ccccc2C(F)(F)F)CC1 ? 24 min

----------
system: UniProtKB O00519
assay.explanation: FAAH inhibition assay
Assay type: biochemical
stated.conditions: read-out: Human FAAH IC50; human recombinant FAAH, OMP 50 μM, pH 8, 37 °C
outcome.measure: IC50 (µM)
Give bare numbers, in µM.

What does the record list as IC50 for O=C(Nc1ccc(-c2nc3ccccc3s2)cc1)C1CCN(S(=O)(=O)c2ccc(C(F)(F)F)cc2Cl)CC1 ? 0.0266

----------
system: human sEH (Homo sapiens)
assay.explanation: sEH inhibition assay
Assay type: biochemical
stated.conditions: Human sEH IC50, human recombinant sEH, CMNPC 5 μM, pH 7.4, 30 °C
Exercise: state measured IC50 for each of the compounds provided.

// solved cases for IC50 follow
[[record]]
input_smiles = "O=C(Nc1ccc(-c2nc3ccccc3s2)cc1)C1CCN(S(=O)(=O)c2ccc(F)cc2Cl)CC1"
recorded_measurement = "16.9 nM"

[[record]]
input_smiles = "O=C(Nc1ccc(-c2nc3ccccc3s2)cc1)C1CCN(S(=O)(=O)c2cc(C(F)(F)F)cc(C(F)(F)F)c2)CC1"
recorded_measurement = "4840 nM"

[[record]]
input_smiles = "O=C(Nc1ccc(-c2nc3ccccc3s2)cc1)C1CCN(S(=O)(=O)c2ccccc2C(F)(F)F)CC1"
recorded_measurement = "3.1 nM"


Attention now shifts to the item below.
What does the record list as IC50 for O=C(Nc1ccc(-c2nc3ccccc3s2)cc1)C1CCN(S(=O)(=O)c2ccc(C(F)(F)F)cc2)CC1 ? 51.5 nM

----------
system: human FAAH (Homo sapiens, UniProt O00519)
Sequence (O00519 whole entry): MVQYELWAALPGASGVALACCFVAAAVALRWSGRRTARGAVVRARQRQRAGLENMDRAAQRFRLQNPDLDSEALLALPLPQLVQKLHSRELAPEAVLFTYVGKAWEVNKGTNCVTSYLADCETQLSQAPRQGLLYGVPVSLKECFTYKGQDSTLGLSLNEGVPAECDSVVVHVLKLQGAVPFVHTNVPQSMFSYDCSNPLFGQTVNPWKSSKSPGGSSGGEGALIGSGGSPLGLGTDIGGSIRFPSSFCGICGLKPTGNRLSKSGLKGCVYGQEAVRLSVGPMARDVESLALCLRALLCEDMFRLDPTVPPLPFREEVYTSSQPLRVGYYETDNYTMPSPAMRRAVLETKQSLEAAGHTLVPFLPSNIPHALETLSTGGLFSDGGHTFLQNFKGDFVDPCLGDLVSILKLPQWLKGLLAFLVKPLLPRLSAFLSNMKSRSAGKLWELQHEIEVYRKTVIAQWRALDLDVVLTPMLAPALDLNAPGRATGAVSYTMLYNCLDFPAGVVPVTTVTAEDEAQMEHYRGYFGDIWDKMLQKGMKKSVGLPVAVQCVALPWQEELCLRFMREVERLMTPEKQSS
assay.explanation: FAAH inhibition assay
Assay type: biochemical
stated.conditions: Human FAAH IC50, human recombinant FAAH, OMP 50 μM, pH 8, 37 °C
outcome.measure: pIC50
Answers are plain numbers, as −log10 of the molar value.

[[record]]
input_smiles = "O=C(Nc1ccc(-c2nc3ccccc3s2)cc1)C1CCN(S(=O)(=O)c2cc(C(F)(F)F)cc(C(F)(F)F)c2)CC1"
outcome_measure = "pIC50"
recorded_measurement = 7.38

[[record]]
input_smiles = "N#Cc1ccccc1S(=O)(=O)N1CCC(C(=O)Nc2ccc(-c3nc4ccccc4s3)cc2)CC1"
outcome_measure = "pIC50"
recorded_measurement = 6.54

[[record]]
input_smiles = "O=C(Nc1ccc(-c2nc3ccccc3s2)cc1)C1CCN(S(=O)(=O)c2c(Cl)cc(Br)cc2Cl)CC1"
outcome_measure = "pIC50"
recorded_measurement = 7.05

[[record]]
input_smiles = "O=C(Nc1ccc(-c2nc3ccccc3s2)cc1)C1CCN(S(=O)(=O)c2ccc(C(F)(F)F)cc2)CC1"
outcome_measure = "pIC50"
recorded_measurement = 7.32

[[record]]
input_smiles = "O=C(Nc1ccc(-c2nc3ccccc3s2)cc1)C1CCN(S(=O)(=O)c2ccc(F)cc2Br)CC1"
outcome_measure = "pIC50"
recorded_measurement = 7.54


For each of the compounds below, note its pIC50.
1. O=C(Nc1ccc(-c2nc3ccccc3s2)cc1)C1CCN(S(=O)(=O)c2ccccc2C(F)(F)F)CC1
2. O=C(Nc1ccc(-c2nc3ccccc3s2)cc1)C1CCN(S(=O)(=O)c2ccc(F)cc2Cl)CC1
3. O=C(Nc1ccc(-c2nc3ccccc3s2)cc1)C1CCN(S(=O)(=O)c2cccc(C(F)(F)F)c2)CC1

[8.01, 7.72, 7.65]

----------
Exercise: state measured IC50 for each of the compounds provided.
system: human sEH (Homo sapiens)
Sequence (P34913 1-555): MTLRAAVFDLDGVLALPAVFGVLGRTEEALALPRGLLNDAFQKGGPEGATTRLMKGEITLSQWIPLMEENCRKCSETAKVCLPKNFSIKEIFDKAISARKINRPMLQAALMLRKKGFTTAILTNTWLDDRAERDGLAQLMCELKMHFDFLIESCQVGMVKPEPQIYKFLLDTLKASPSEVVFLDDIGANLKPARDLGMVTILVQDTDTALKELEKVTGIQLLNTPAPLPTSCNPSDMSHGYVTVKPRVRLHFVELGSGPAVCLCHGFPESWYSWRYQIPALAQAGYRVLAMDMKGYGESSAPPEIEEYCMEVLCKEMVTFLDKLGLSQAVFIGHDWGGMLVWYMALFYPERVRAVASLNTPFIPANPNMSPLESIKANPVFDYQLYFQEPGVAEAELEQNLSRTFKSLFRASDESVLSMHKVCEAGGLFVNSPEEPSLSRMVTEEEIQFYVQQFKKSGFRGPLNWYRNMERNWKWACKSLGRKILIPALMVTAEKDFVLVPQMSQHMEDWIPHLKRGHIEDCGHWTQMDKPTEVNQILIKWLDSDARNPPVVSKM
assay.explanation: sEH inhibition assay
Format: biochemical
stated.conditions: Human sEH IC50, human recombinant sEH, CMNPC 5 μM, pH 7.4, 30 °C
Numbers only, in µM.

// solved cases for IC50 follow
[[record]]
compound = "O=C(Nc1ccc(-c2nc3ccccc3s2)cc1)C1CCN(S(=O)(=O)c2ccc(F)cc2Br)CC1 [Compound 7h]"
system = "human sEH (Homo sapiens)"
recorded_measurement = 0.0082

[[record]]
compound = "N#Cc1ccccc1S(=O)(=O)N1CCC(C(=O)Nc2ccc(-c3nc4ccccc4s3)cc2)CC1 [Compound 7b]"
system = "human sEH (Homo sapiens)"
recorded_measurement = 0.0195

[[record]]
compound = "O=C(Nc1ccc(-c2nc3ccccc3s2)cc1)C1CCN(S(=O)(=O)c2c(Cl)cc(Br)cc2Cl)CC1 [Compound 7k]"
system = "human sEH (Homo sapiens)"
recorded_measurement = 0.041


Attention now shifts to the item below.
What does the record list as IC50 for O=C(Nc1ccc(-c2nc3ccccc3s2)cc1)C1CCN(S(=O)(=O)c2cccc(C(F)(F)F)c2)CC1 [Compound 7c] ? 0.0893
